Consider the following molecules; for each one, report its T/C.
System: P388 leukemia ip, CD2F1 mice, survival T/C
Assay: NCI In Vivo Anticancer Drug Screen. Data for tumor model P388 Leukemia (intraperitoneal) in CD2F1 (CDF1) mice
Settings: endpoint: median survival time; dose: 120.0 mg/kg/injection; schedule: Q01DX005 (ip); vehicle: Klucel (hydroxypropylcellulose) (HPC); higher = longer survival
Inconclusive results and toxic doses are left out.

Provide the reported T/C (system: P388 leukemia ip, CD2F1 mice, survival T/C) for CCC1(O)C(=O)Nc2ccccc2C1=O (stereo not given)
88 % of control

Provide the reported T/C (system: P388 leukemia ip, CD2F1 mice, survival T/C) for `C=CC(=O)C(C(=O)OCC)=P(c1ccccc1)(c1ccccc1)c1ccccc1`
97 % of control

Provide the reported T/C (system: P388 leukemia ip, CD2F1 mice, survival T/C) for CCOC(=O)N1C=CC2Oc3c(Cl)c(Cl)c(Cl)c(Cl)c3OC2C=N1 (stereo not given)
101 % of control

Provide the reported T/C (system: P388 leukemia ip, CD2F1 mice, survival T/C) for `O=C1OC2(C=C(O)C1=O)CCCCC2`
107 % of control

Provide the reported T/C (system: P388 leukemia ip, CD2F1 mice, survival T/C) for `CC1(C)OC(=O)N=C1c1ccc(Br)cc1`
104 % of control

Provide the reported T/C (system: P388 leukemia ip, CD2F1 mice, survival T/C) for CCCCCCC1C/C(=C/N(C)C)C(=O)O1 (stereo not given)
104 % of control

Provide the reported T/C (system: P388 leukemia ip, CD2F1 mice, survival T/C) for `COC1(OC)OC(c2ccc([N+](=O)[O-])cc2)=C(c2ccc([N+](=O)[O-])cc2)OC1(OC)OC`
87 % of control

Provide the reported T/C (system: P388 leukemia ip, CD2F1 mice, survival T/C) for CN(C)C1CS(=O)(=O)OC2=C1CCc1sccc12 (stereo not given)
100 % of control

Provide the reported T/C (system: P388 leukemia ip, CD2F1 mice, survival T/C) for CC1(C)SC(C)(c2ccc[nH]2)N(c2nccs2)C1=O (stereo not given)
104 % of control

Provide the reported T/C (system: P388 leukemia ip, CD2F1 mice, survival T/C) for CCCCCCCCN(CCCCCCCC)/N=C/c1c2c(O)c3c(O)c(C)c4c(c3c1O)C(=O)C(C)(O/C=C/C(OC)C(C)C(OC(C)=O)C(C)C(O)C(C)C(O)C(C)/C=C/C=C(C)C(=O)N2)O4 (stereo not given)
89 % of control

* * *

Consider the following molecules; for each one, report its T/C.
System: P388 leukemia ip, CD2F1 mice, survival T/C
Assay: NCI In Vivo Anticancer Drug Screen. Data for tumor model P388 Leukemia (intraperitoneal) in CD2F1 (CDF1) mice
Details: endpoint: median survival time; dose: 100.0 mg/kg/injection; schedule: Q01DX009 (ip); vehicle: saline with Tween-80; higher = longer survival
Inconclusive results and toxic doses are left out.

Quick one: give measured T/C for `C=CCCN(c1ccc(C(=O)OCC)cc1)S(=O)(=O)c1ccc(C)cc1`
100 % of control

Quick one: give measured T/C for CC(C)(C=O)COC1OCN(C(C)(C)C)CC1(C)C (stereo not given)
122 % of control

Quick one: give measured T/C for `FC(F)C(F)(F)C(F)(F)C(F)(F)COCC1(COCC(F)(F)C(F)(F)C(F)(F)C(F)F)COC1`
106 % of control

Quick one: give measured T/C for NC(=O)NC(CC(=O)O)C(=O)O (stereo not given)
101 % of control

Quick one: give measured T/C for `CC(C)(c1ccccc1)c1ccc(O)cc1`
100 % of control

* * *

Test system: P388 leukemia ip, CD2F1 mice, survival T/C
Experiment: NCI In Vivo Anticancer Drug Screen. Data for tumor model P388 Leukemia (intraperitoneal) in CD2F1 (CDF1) mice
Conditions: endpoint: median survival time; dose: 100.0 mg/kg/injection; schedule: Q01DX009 (ip); vehicle: suspension in saline; higher = longer survival
Protocol: The antitumor activity of compounds was measured in mice bearing transplantable tumors. Survival or tumor size were measured and the results are expressed as the measurement made in the treated group (T) divided by the measurement made in the vehicle treated control group (C). The tumor model used in this assay is P388 Leukemia (intraperitoneal) in CD2F1 (CDF1) mice
Toxic doses and inconclusive results are not listed.
Consider the following molecules; for each one, report its T/C.

Quick one: give measured T/C for `COc1ccc(SCC(=O)c2ccc([N+](=O)[O-])o2)cc1`
104 % of control

Quick one: give measured T/C for `S=C(Nc1ccc(I)cc1)SCc1ccco1`
112 % of control

Quick one: give measured T/C for `Cc1cc(NC(=S)SCc2ccc3c(c2)OCO3)ccc1Cl`
94 % of control

Quick one: give measured T/C for `O=c1[nH]c(=S)[nH]cc1-c1ccc(Cl)c(Cl)c1`
104 % of control

Quick one: give measured T/C for `NC(=O)c1cn[nH]c1N`
104 % of control

Quick one: give measured T/C for CCCCCCCCCCCCCCCC(=O)NCCCCC(N)C(=O)O (stereo not drawn)
98 % of control

Quick one: give measured T/C for `Cc1ccc(N=CN(C)C=Nc2ccc(C)cc2C)c(C)c1`
113 % of control

Quick one: give measured T/C for `FC(F)(F)c1ccccc1NC(=S)SCc1ccco1`
93 % of control

* * *

Consider the following compounds; for each one, report its T/C.
Tested on: P388 leukemia ip, CD2F1 mice, survival T/C
Assay: NCI In Vivo Anticancer Drug Screen. Data for tumor model P388 Leukemia (intraperitoneal) in CD2F1 (CDF1) mice
Conditions: endpoint: median survival time; dose: 100.0 mg/kg/injection; schedule: Q01DX005 (ip); vehicle: distilled water + alcohol; higher = longer survival
Inconclusive results and toxic doses are left out.

Provide the reported T/C (system: P388 leukemia ip, CD2F1 mice, survival T/C) for CC1CCCCC1(O)Cc1ccccc1 (centres undefined)
101 % of control

Provide the reported T/C (system: P388 leukemia ip, CD2F1 mice, survival T/C) for `COc1ccc(Cc2cc(C(C)(C)C)cc(C(C)(C)C)c2OC)cc1`
96 % of control

Provide the reported T/C (system: P388 leukemia ip, CD2F1 mice, survival T/C) for COc1ccc(C(c2cc(C(C)(C)C)cc(C(C)(C)C)c2O)N2CCCCC2)cc1 (centres undefined)
100 % of control

Provide the reported T/C (system: P388 leukemia ip, CD2F1 mice, survival T/C) for `Nc1nc(N)c2ncn(Cc3c(Cl)cccc3Cl)c2n1`
97 % of control

* * *

Consider the following compounds; for each one, report its T/C.
System: P388 leukemia ip, CD2F1 mice, survival T/C
Assay: NCI In Vivo Anticancer Drug Screen. Data for tumor model P388 Leukemia (intraperitoneal) in CD2F1 (CDF1) mice
Conditions: endpoint: median survival time; dose: 200.0 mg/kg/injection; schedule: Q04DX002 (ip); vehicle: Klucel (hydroxypropylcellulose) (HPC); higher = longer survival
Inconclusive results and toxic doses are left out.

Quick one: give measured T/C for Cc1ccc(NC2SC(=O)N(Cc3ccccc3)/C2=N/N=C2\C(Nc3ccc(C)cc3)SC(=O)N2Cc2ccccc2)cc1 (stereo not given)
97 % of control

Quick one: give measured T/C for `Cc1ccc2c(CC(C)(C)[N+]3(C)CCCC3)ccc(C(C)C)cc1-2`
112 % of control

Quick one: give measured T/C for CC12C3=CC=C4C=CC=C(c5ccccc5C1=CC=C3)C42C (stereo not given)
107 % of control

Quick one: give measured T/C for `COC(=O)n1oc2c(Br)cc(Br)cc2c1=O`
101 % of control

Quick one: give measured T/C for `C[C@@]12CCCC1=[N+]1CCc3ccccc3[C@@H]1CC2=O`
102 % of control

Quick one: give measured T/C for O=C1C2=C3C(=CC4COC3O4)C3C4COC(O4)C(=O)C3C2C2COC1O2 (stereo not given)
109 % of control

Quick one: give measured T/C for `O=c1[nH]c(-c2cccc(-c3nnc(-c4ccccc4Cl)c(=O)[nH]3)c2)nnc1-c1ccccc1Cl`
100 % of control

Quick one: give measured T/C for CC1=CC2C(=O)N(C)C1c1ccccc12 (stereo not given)
100 % of control

Quick one: give measured T/C for `CSc1nccc(=O)n1-c1ccccc1C`
102 % of control

Quick one: give measured T/C for `O=C1C=C2CCC3=CC(=O)C(=CC3=O)CCC(=C1)C2=O`
97 % of control

* * *

Test system: P388 leukemia ip, CD2F1 mice, survival T/C
Assay: NCI In Vivo Anticancer Drug Screen. Data for tumor model P388 Leukemia (intraperitoneal) in CD2F1 (CDF1) mice
Settings: endpoint: median survival time; dose: 100.0 mg/kg/injection; schedule: Q04DX003 (ip); vehicle: Klucel (hydroxypropylcellulose) (HPC); higher = longer survival
Toxic doses and inconclusive results are not listed.
assayReadout: T/C

Quick one: give measured T/C for `C[C@]12C=CC(=O)C=C1CC[C@H]1[C@@H]3C[C@@H](O)[C@](O)(C(=O)CO)[C@@]3(C)C[C@H](O)[C@@]12F`
100 % of control

Quick one: give measured T/C for `Cn1nnnc1CCN(CCN(CCc1nnnn1C)/N=C\c1ccccc1)/N=C\c1ccccc1`
95 % of control

Quick one: give measured T/C for `Nc1cc2c(cc1C=O)OCO2`
99 % of control

Quick one: give measured T/C for `O=C(CCl)Nc1ccc2c(c1)C(=O)c1cccn1-2`
107 % of control

Quick one: give measured T/C for `COc1cccc(-n2c(SC)nccc2=O)c1`
100 % of control

Quick one: give measured T/C for `ClCCN(CCN(CCCl)c1cccc2ccccc12)c1cccc2ccccc12`
103 % of control

Quick one: give measured T/C for COC(=O)C(c1c(O)cc(C)oc1=O)C(C(=O)OC)c1c(O)cc(C)oc1=O (configuration not stated)
96 % of control

Quick one: give measured T/C for COc1cccc(N2CCN(CC(O)COc3cc4c(c5c3CCCC5)CCCC4)CC2)c1 (configuration not stated)
93 % of control

Quick one: give measured T/C for `CC(=O)NS(=O)(=O)c1ccc(C)cc1`
106 % of control

Quick one: give measured T/C for `O=C1COCC(=O)OCCOCCOCCO1`
100 % of control

Quick one: give measured T/C for `Nc1nc(Cl)cc(=O)[nH]1`
102 % of control

Quick one: give measured T/C for O=P(CCCCBr)(NCc1ccccc1)c1ccccc1 (configuration not stated)
105 % of control
